Can you tell me LD50 for the items I'm about to list?
assay: Acute toxicity test; details: mouse, in vivo, ip
Numbers only, in mg/kg.

Worked cases, LD50 given:
# COMPOUND, QUANTITY UNIT, LD50
rows = [
    ("FC(F)(F)c1cccc(C#CCNCCc2ccccc2)c1", "mg/kg", 252),
    ("CC(C#Cc1cccc(C(F)(F)F)c1)N(C)C (stereo not drawn)", "mg/kg", 220),
    ("CC(N)C#Cc1ccc([N+](=O)[O-])cc1 (stereo not drawn)", "mg/kg", 152),
    ("CN(CC#Cc1cccc(C(F)(F)F)c1)Cc1ccccc1", "mg/kg", 416),
    ("C(#Cc1ccccc1)CN1CCCCC1", "mg/kg", 188),
]

// input: 5 compounds below; output: LD50 for each
1. FC(F)(F)c1cccc(C#CCNc2ccco2)c1
2. C#CC(C)(C)N
3. CCC(N)C#Cc1ccccc1 (stereo not drawn)
4. CC(N)C#Cc1ccccc1 (stereo not drawn)
5. CC(C#Cc1cccc(C(F)(F)F)c1)NCc1ccccc1 (stereo not drawn)

[351, 779, 84, 66, 366]

Which LD50 is reported for this compound? CCNCC#Cc1ccccc1 98
